Target: Gal(b1-4)GlcNAc(b1-3)Gal(b1-3)GlcNAc
Assay: glycan array binding signal (z-score within array); higher = stronger binding
Settings: glycan notation: IUPAC condensed, linker removed
The full list was thinned out, with the strongest signals kept by preference.
Reported glycan array binding signal (z-score) values for a set of binders
MEASURED_METRIC: glycan array binding signal (z-score)

[[record]]
binder = "LCA (Lens culinaris), P02870 (protein) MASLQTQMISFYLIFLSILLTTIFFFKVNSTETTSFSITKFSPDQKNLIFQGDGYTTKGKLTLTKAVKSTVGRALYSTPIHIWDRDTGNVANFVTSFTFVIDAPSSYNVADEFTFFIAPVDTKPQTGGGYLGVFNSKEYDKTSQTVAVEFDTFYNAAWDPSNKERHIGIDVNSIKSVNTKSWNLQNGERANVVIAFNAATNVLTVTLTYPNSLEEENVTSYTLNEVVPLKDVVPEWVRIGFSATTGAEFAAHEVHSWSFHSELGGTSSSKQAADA"
observed_result = -0.225

[[record]]
binder = "SP15308F-bth-333-19-333 (Bacteroides thetaiotaomicron) (protein) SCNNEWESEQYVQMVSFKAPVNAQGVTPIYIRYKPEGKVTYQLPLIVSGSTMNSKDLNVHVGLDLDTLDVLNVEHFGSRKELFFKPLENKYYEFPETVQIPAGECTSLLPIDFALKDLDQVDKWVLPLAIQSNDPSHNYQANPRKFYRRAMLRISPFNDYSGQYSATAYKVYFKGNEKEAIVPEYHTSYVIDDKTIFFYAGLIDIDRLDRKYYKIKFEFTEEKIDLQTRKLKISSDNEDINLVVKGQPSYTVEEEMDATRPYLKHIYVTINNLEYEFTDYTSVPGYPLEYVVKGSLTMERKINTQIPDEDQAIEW"
observed_result = -0.026

[[record]]
binder = "CALR truncated at D342 (Homo sapiens) (protein) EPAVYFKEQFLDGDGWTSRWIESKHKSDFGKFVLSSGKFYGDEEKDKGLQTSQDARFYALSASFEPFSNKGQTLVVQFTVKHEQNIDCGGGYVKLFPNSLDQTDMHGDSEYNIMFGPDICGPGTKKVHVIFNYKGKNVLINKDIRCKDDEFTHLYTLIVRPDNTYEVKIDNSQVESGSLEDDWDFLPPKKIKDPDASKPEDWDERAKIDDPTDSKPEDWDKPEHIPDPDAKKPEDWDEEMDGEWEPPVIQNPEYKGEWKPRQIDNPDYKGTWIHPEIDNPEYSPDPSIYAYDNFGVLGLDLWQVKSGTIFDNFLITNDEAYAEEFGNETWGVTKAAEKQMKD"
observed_result = 0.662

[[record]]
binder = "Gal 8 (Homo sapiens), O00214_1 (protein) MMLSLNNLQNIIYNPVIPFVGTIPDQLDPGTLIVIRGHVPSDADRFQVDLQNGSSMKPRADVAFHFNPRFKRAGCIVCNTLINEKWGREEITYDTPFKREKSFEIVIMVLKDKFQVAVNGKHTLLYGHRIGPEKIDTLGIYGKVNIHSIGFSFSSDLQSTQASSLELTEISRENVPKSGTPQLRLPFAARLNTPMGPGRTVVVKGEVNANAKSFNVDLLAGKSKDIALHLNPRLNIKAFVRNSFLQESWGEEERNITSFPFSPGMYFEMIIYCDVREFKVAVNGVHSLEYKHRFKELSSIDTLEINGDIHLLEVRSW"
observed_result = 1.38

